experiment: soluble on expression in E. coli; label from the status in PepcDB or PDB records
assay_metric: soluble on expression in E. coli

sequence_content	assay_metric	test_result
MGSDKIHHHHHHMLGMPTVLGVVLRMGRELWWCSLRPVSMLKEYAYCPRVAYYMEVLRPSYRPTEPMNLSREIYSVDHVRGILRSSGFRIVKEEWAVPLRSKRLGLQGVADGVVVEGSLGIIVVEAKLSVRSNRWLHTRGRHVIFQAAAYALALEETRGYSVDYLAIVSLEDSKTYVVKMSPSLRRDVIRLADDMNKTLDDGLEPPPKPGRKCVACRFRRVCQPWVAERGSER	soluble on expression in E. coli	not soluble
MAIQLSKGQRIDLTKTNPGLTKAVIGLGWDTNKYSGGHDFDLDASAFLVDAHDNCVNDLDFVFYNNLEHPSGGVIHTGDNRTGEGDGDDEQIIVDFSKIPAHIEKIGITVTIHDAEARSQNFGQVSNAFVRVVDEETQNELLRFDLGEDFSIETAVVVCELYRHGGEWKFNAIGSGFSGGLAALCRNYGLQV	soluble on expression in E. coli	not soluble
MGSDKIHHHHHHMDMTTYPIYLVGGSKGGVGKSFVALALADYLLRQNIRAALVETDTSNPDVMKAVQDEMRCIAYNLDDADGWIGLVNFCDEQRDAAIVVNTAARSQTGVEQFGATLAGALGELQRRLVVLWVINRQRDSLELLHAFSKTFPDAVTNVVRNGYFGPAEKFTLYQGSQLRRSIEARGHSLDFPDLADRVADELRSQRMSIRKAAETMHIGERVELMRWRSLCDAMFARVTVDG	soluble on expression in E. coli	not soluble
